The binders listed here are annotated with their interaction score.
systemUnderTest: T1, P2-AA-1HAA-E
T1 chain: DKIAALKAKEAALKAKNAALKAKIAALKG
experimentNotes: two-hybrid library CCmax;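 further: natural log of median RNA to DNA barcode read ratio; higher means stronger binding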
testConditions: mean of both orientations
Answer using only a numeral; do not append any unit.

INSERT INTO results (binder, resultnumber) VALUES
  ('DEIAALEAEIAALEAENAALEAEIAALEG [P1-AA-1HAA-I]', 1.82),
  ('DEIAALEAELAALEAENAALEAEIAALEG [P1-AA-1HAA-L]', 1.89),
  ('DEIAALEAEEAALEAENAALEAEIAALEG [P1-AA-1HAA-E]', 0.691),
  ('DEIAALEAERAALEAENAALEAEIAALEG [P1-AA-1HAA-R]', 0.63);

Below: the item to evaluate.
Complete the entry with interaction score for DEIAALEAEAAALEAENAALEAEIAALEG [P1-AA-1HAA-A] 1.86
